Kindly state growth for each of the entries shown.
# Tested on: BT-549 breast
# Assay Summary: NCI-60 one-dose screen, 48 h (100 = growth as untreated, 0 = no growth, -100 = all killed)
# Condition Set: 10 µM unless noted
The panel holds about 83,000 compounds, 20% with a hit somewhere; the sample as a whole holds those more often.
Numbers only, in %.

Recorded results for 3 compounds are shown here.
| Compound | Reported Value |
| --- | --- |
| CCN(CC)c1ccc(/C=N/Nc2nc(-c3ccc(Br)cc3)cs2)c(O)c1 | 37.4 |
| Cc1cccc(NC(=O)[C@]23CCC(C)(C)CC2C2=CCC4[C@@]5(C)C[C@@H](O)[C@H](O)[C@@](C)(CO)C5CC[C@@]4(C)[C@]2(C)CC3)c1 (stereo not given in full) | 8.83 |
| CCCCCCCCc1ccc(C(=O)Nc2ccc(C)cc2C(=O)O)cc1C | 101 |

Give growth for all compounds that follow.
1. COc1ccc(N2N=C(c3ccc4c(c3)OCO4)CC2c2cccc(NC(=O)CCCNS(=O)(=O)c3ccc(F)cc3)c2)cc1 (stereo not given)
2. COc1cc(CNC(=O)/C=C/c2ccc3c(c2)OCO3)ccc1OCc1cn(-c2ccc([N+](=O)[O-])cc2)nn1
3. COc1ccccc1C(=O)NN1C(=O)/C(=C/C2=Cc3ccccc3OC2)SC1=S
4. COc1ccc(-c2ccnc(SCc3cc4ccccc4[nH]c3=O)n2)cc1
5. COc1ccc(-c2c(Nn3cnnn3)no[n+]2[O-])cc1
6. N#Cc1c(-c2ccc(Br)cc2)nc2n[nH]c(-c3ccc(Br)cc3)c2c1-c1ccc(C(F)(F)F)cc1
7. C=C1CCC2C3(C)COC(c4ccco4)OC3CCC2(C)C1CC(Sc1ccccc1)C1=CCOC1=O (stereo not given)
8. O=C(c1ccc(OCCN2CCOCC2)cc1)C1[C@H](c2ccc(Cl)cc2)[C@@H](c2ccccc2)NC12C(=O)Nc1ccc(Br)cc12 (stereo not given in full)

[reply]
1. 97.3
2. 71.9
3. 83.6
4. 29.7
5. 61.1
6. 11.3
7. 5.74
8. 54.1

Give growth for all compounds that follow.
1. O=C(Cn1nc(-c2ccccc2)ccc1=O)N/N=C/c1ccc(N2CCOCC2)cc1
2. Cc1ccc(NCC(=O)Cn2cc(COc3ccc(C=Nc4cnc5ccccc5c4)cc3)nn2)cc1

[reply]
1. 121
2. 115

Give growth for all compounds that follow.
1. O=C1Nc2cc(Cl)ccc2/C1=C/c1cccc(OCc2ccccn2)c1
2. CCCCCCCS(=O)(=O)N1CCCC(C(=O)Nc2nc3ccc(NC(=O)c4ccc(F)c(OC)c4F)cc3s2)C1 (stereo not given)

[reply]
1: -12.6; 2: 55.8

###

# Tested on: CCRF-CEM leukemia
# Assay Summary: NCI-60 one-dose screen, 48 h (100 = growth as untreated, 0 = no growth, -100 = all killed)
# Condition Set: 10 µM unless noted
The panel holds about 83,000 compounds, 20% with a hit somewhere; the sample as a whole holds those more often.
Classify: Fulfilled when growth is strictly less than 30%; Not fulfilled when growth is not.

// below: answered compounds
| Compound | Label |
| --- | --- |
| COCOc1cc2oc(C(=O)N[C@@H](Cc3ccccc3)C(O)C(=O)NCc3ccccc3)c(C)c(=O)c2cc1OCOC (stereo partly drawn) | Not fulfilled |
| COc1cc(/C=C/C(=O)c2ccc(C)cc2)ccc1Oc1nc(Nc2ccc(F)cc2)nc(N(C)C)n1 | Fulfilled |
| CC(C)C(C(=O)O)n1c(O)c(/C=C2/C=c3cc4c(cc3=NC2=O)OCO4)sc1=S (stereo not drawn) | Not fulfilled |
| CCCCNC(=S)Nc1ccc(OCc2nc3ccccc3[nH]2)cc1 | Not fulfilled |
| O=C(NNc1ccccc1)n1c(=O)c2ccccc2c(=O)n1-c1ccccc1 | Not fulfilled |
| O=C(O)c1cccc(-c2ccc(/C=N/NC(=O)c3[nH]c4ccc(Br)cc4c3-c3ccccc3)o2)c1 | Fulfilled |
| CC1(C)CC[C@]2(C(=O)O)CC[C@]3(C)C(=CCC4[C@@]5(C)C[C@@H](O)[C@@H]6OC(c7ccccc7F)OC[C@@]6(C)C5CC[C@]43C)C2C1 (stereo partly drawn) | Fulfilled |

[ask] Consider the compound `Cn1cc(-c2cc(N)n3nc(-c4cn(C)c5ncc(Br)cc45)cc3n2)c2cc(Br)cnc21` . Is its growth strictly less than 30%?
[reply] Fulfilled
